# System: MS2 coat protein
# assay.remarks: apparent Kd, MS2 coat protein; higher = weaker binding; RNA-MaP array
# condition.notes: designed as: OFF switch for theophylline; no ligand
Exercise: state measured apparent Kd for each of the sequences provided.
Write the value in nM as a bare number.

// lookup apparent Kd | system=MS2 coat protein | key= CAUCGGGCGGUAAAUGGCGGGUACGGUGAUACCAGUUUUUGAUUUAACCCUUGGCAGCACUAUACAUGAGGAUCACCCAUGUAAU
17.9

// lookup apparent Kd | system=MS2 coat protein | key= AUACGGCGGUAAAAUCAGAGAGUAAAAGAUACCAGCAAUAAUAAAUGCCCUUGGCAGCUUCUGACAUGAGGAUCACCCAUGUAAA
15.3

// lookup apparent Kd | system=MS2 coat protein | key= UAAUUCACUAUUCACGGUCCGAUGUUCGAUACCAGAUCAUUUCGAAUCCCUUGGCAGCGAUUAACAUGAGGAUCACCCAUGUAAC
32.2

// lookup apparent Kd | system=MS2 coat protein | key= CAUCCACCUGAAGCCUCCCAAUUCCUCGAUACCAGAGGAUUAAGACUCCCUUGGCAGCGAGCUACAUGAGGAUCACCCAUGUGCC
19.1

// lookup apparent Kd | system=MS2 coat protein | key= CGGGAACGAUAUGAUACCAGCCUGCGAAAGAAUGCUUAGUACAUGAGGAUCACCCAUGUAGGCCCUUGGCAGCAUCGACUCAAGU
14.8
